- System: NCI-H1975
- experiment.notes: relative viability (nuclei count vs DMSO), 5 days (fraction); higher = more cells survive
- recorded.conditions: first compound 0.002 µM
Measured relative viability by item
Give the value as a plain number.

1. CCNC(=O)c1noc(-c2cc(C(C)C)c(O)cc2O)c1-c1ccc(CN2CCOCC2)cc1 [Luminespib] + CC1(C)CCC(c2ccc(Cl)cc2)=C(CN2CCN(c3ccc(C(=O)NS(=O)(=O)c4ccc(N[C@H](CCN5CCOCC5)CSc5ccccc5)c(S(=O)(=O)C(F)(F)F)c4)cc3)CC2)C1 [Navitoclax] (partner 0.5 µM) | 1.17
2. CCNC(=O)c1noc(-c2cc(C(C)C)c(O)cc2O)c1-c1ccc(CN2CCOCC2)cc1 [Luminespib] + CC(C)C[C@H](NC(=O)[C@H](Cc1ccccc1)NC(=O)c1cnccn1)B(O)O [Bortezomib] (partner 0.002 µM) | 0.444
3. CCNC(=O)c1noc(-c2cc(C(C)C)c(O)cc2O)c1-c1ccc(CN2CCOCC2)cc1 [Luminespib] + C[C@]1(O)C[C@@H](c2nc(-c3ccc4ccc(-c5ccccc5)nc4c3)c3c(N)nccn32)C1 [Linsitinib] (partner 1 µM) | 1.08
4. CCNC(=O)c1noc(-c2cc(C(C)C)c(O)cc2O)c1-c1ccc(CN2CCOCC2)cc1 [Luminespib] + Cc1nc(NC(=O)N2CCC[C@H]2C(N)=O)sc1-c1ccnc(C(C)(C)C(F)(F)F)c1 [Alpelisib] (partner 2 µM) | 0.667
5. CCNC(=O)c1noc(-c2cc(C(C)C)c(O)cc2O)c1-c1ccc(CN2CCOCC2)cc1 [Luminespib] + O=C(c1cc(Cc2n[nH]c(=O)c3ccccc23)ccc1F)N1CCN(C(=O)C2CC2)CC1 [Olaparib] (partner 8 µM) | 0.875

Continue with the compound presented below.
// sample CCNC(=O)c1noc(-c2cc(C(C)C)c(O)cc2O)c1-c1ccc(CN2CCOCC2)cc1 [Luminespib] + Cc1cc(Nc2cc(N3CCN(C)CC3)nc(Sc3ccc(NC(=O)C4CC4)cc3)n2)n[nH]1 [Tozasertib] (partner 0.1 µM) , its relative viability was 0.759

----------
Measured relative viability by item
- System: NCI-H1650
- experiment.notes: relative viability (nuclei count vs DMSO), 5 days (fraction); higher = more cells survive
- recorded.conditions: first compound 0.03162 µM

Before answering, review these 2 worked examples.
1. Cc1cn(-c2cc(NC(=O)c3ccc(C)c(Nc4nccc(-c5cccnc5)n4)c3)cc(C(F)(F)F)c2)cn1 [Nilotinib] + CC1(C)CCC(c2ccc(Cl)cc2)=C(CN2CCN(c3ccc(C(=O)NS(=O)(=O)c4ccc(N[C@H](CCN5CCOCC5)CSc5ccccc5)c(S(=O)(=O)C(F)(F)F)c4)cc3)CC2)C1 [Navitoclax] (partner 0.5 µM) | 0.99
2. Cc1cn(-c2cc(NC(=O)c3ccc(C)c(Nc4nccc(-c5cccnc5)n4)c3)cc(C(F)(F)F)c2)cn1 [Nilotinib] + CC(C)C[C@H](NC(=O)[C@H](Cc1ccccc1)NC(=O)c1cnccn1)B(O)O [Bortezomib] (partner 0.002 µM) | 0.196

Continue with the compound presented below.
// sample Cc1cn(-c2cc(NC(=O)c3ccc(C)c(Nc4nccc(-c5cccnc5)n4)c3)cc(C(F)(F)F)c2)cn1 [Nilotinib] + O=C(CCCCCCC(=O)Nc1ccccc1)NO [Vorinostat] (partner 1 µM) , its relative viability was 0.488

----------
- System: EMC-BAC-2
- experiment.notes: relative viability (nuclei count vs DMSO), 5 days (fraction); higher = more cells survive
- recorded.conditions: first compound 20 µM
Measured relative viability by item
Give the value as a plain number.

Before answering, review these 6 worked examples.
1. Cc1csc(=NC2CCCCC2)n1/N=C/c1ccc(O)c(O)c1O [MIM1] + Cc1nc(NC(=O)N2CCC[C@H]2C(N)=O)sc1-c1ccnc(C(C)(C)C(F)(F)F)c1 [Alpelisib] (partner 2 µM) | 0.404
2. Cc1csc(=NC2CCCCC2)n1/N=C/c1ccc(O)c(O)c1O [MIM1] + COc1cc2c(Oc3ccc(NC(=O)C4(C(=O)Nc5ccc(F)cc5)CC4)cc3F)ccnc2cc1OCCCN1CCOCC1 [Foretinib] (partner 0.25 µM) | 0.449
3. Cc1csc(=NC2CCCCC2)n1/N=C/c1ccc(O)c(O)c1O [MIM1] + CS(=O)(=O)CCNCc1ccc(-c2ccc3ncnc(Nc4ccc(OCc5cccc(F)c5)c(Cl)c4)c3c2)o1 [Lapatinib] (partner 2 µM) | 0.212
4. Cc1csc(=NC2CCCCC2)n1/N=C/c1ccc(O)c(O)c1O [MIM1] + CCNC(=O)c1noc(-c2cc(C(C)C)c(O)cc2O)c1-c1ccc(CN2CCOCC2)cc1 [Luminespib] (partner 0.01 µM) | 0.423
5. Cc1csc(=NC2CCCCC2)n1/N=C/c1ccc(O)c(O)c1O [MIM1] + CC(=O)Nc1cccc(-n2c(=O)n(C3CC3)c(=O)c3c(Nc4ccc(I)cc4F)n(C)c(=O)c(C)c32)c1 [Trametinib] (partner 0.02 µM) | 0.355
6. Cc1csc(=NC2CCCCC2)n1/N=C/c1ccc(O)c(O)c1O [MIM1] + Cc1nc(Nc2ncc(C(=O)Nc3c(C)cccc3Cl)s2)cc(N2CCN(CCO)CC2)n1 [Dasatinib] (partner 0.075 µM) | 0.179

// sample Cc1csc(=NC2CCCCC2)n1/N=C/c1ccc(O)c(O)c1O [MIM1] + N=C(N)NC(=N)NCCc1ccccc1 [Phenformin] (partner 250 µM) , its relative viability was 0.208

// sample Cc1csc(=NC2CCCCC2)n1/N=C/c1ccc(O)c(O)c1O [MIM1] + C[C@@H](Oc1cc(-c2cnn(C3CCNCC3)c2)cnc1N)c1c(Cl)ccc(F)c1Cl [Crizotinib] (partner 1 µM) , its relative viability was 0.196

----------
- Tested on: NCI-H661
- experiment.notes: relative viability (nuclei count vs DMSO), 5 days (fraction); higher = more cells survive
- recorded.conditions: first compound 0.1 µM
value.kind: relative viability
Give the value as a plain number.

Before answering, review these 3 worked examples.
1. Cc1cn(-c2cc(NC(=O)c3ccc(C)c(Nc4nccc(-c5cccnc5)n4)c3)cc(C(F)(F)F)c2)cn1 [Nilotinib] + COc1cc2c(Oc3ccc(NC(=O)C4(C(=O)Nc5ccc(F)cc5)CC4)cc3F)ccnc2cc1OCCCN1CCOCC1 [Foretinib] (partner 0.25 µM) | 0.9
2. Cc1cn(-c2cc(NC(=O)c3ccc(C)c(Nc4nccc(-c5cccnc5)n4)c3)cc(C(F)(F)F)c2)cn1 [Nilotinib] + CCNC(=O)c1noc(-c2cc(C(C)C)c(O)cc2O)c1-c1ccc(CN2CCOCC2)cc1 [Luminespib] (partner 0.01 µM) | 0.832
3. Cc1cn(-c2cc(NC(=O)c3ccc(C)c(Nc4nccc(-c5cccnc5)n4)c3)cc(C(F)(F)F)c2)cn1 [Nilotinib] + COc1cccc2cc(-c3nc([C@H]4CC[C@H](C(=O)O)CC4)n4ncnc(N)c34)[nH]c12 [OSI-027] (partner 0.5 µM) | 0.634

Continue with the compound presented below.
Form field relative viability for item Cc1cn(-c2cc(NC(=O)c3ccc(C)c(Nc4nccc(-c5cccnc5)n4)c3)cc(C(F)(F)F)c2)cn1 [Nilotinib] + CS(=O)(=O)CCNCc1ccc(-c2ccc3ncnc(Nc4ccc(OCc5cccc(F)c5)c(Cl)c4)c3c2)o1 [Lapatinib] (partner 2 µM) on NCI-H661: 0.436

----------
- Tested on: LC-2-ad
- experiment.notes: relative viability (nuclei count vs DMSO), 5 days (fraction); higher = more cells survive
- recorded.conditions: first compound 0.001 µM
// classify: if (relative viability < 0.8) T else F

1. Cc1cn(-c2cc(NC(=O)c3ccc(C)c(Nc4nccc(-c5cccnc5)n4)c3)cc(C(F)(F)F)c2)cn1 [Nilotinib] + COc1cc2c(Oc3ccc(NC(=O)C4(C(=O)Nc5ccc(F)cc5)CC4)cc3F)ccnc2cc1OCCCN1CCOCC1 [Foretinib] (partner 0.25 µM) | F
2. Cc1cn(-c2cc(NC(=O)c3ccc(C)c(Nc4nccc(-c5cccnc5)n4)c3)cc(C(F)(F)F)c2)cn1 [Nilotinib] + NC(=O)Nc1cc(-c2cccc(F)c2)sc1C(=O)N[C@H]1CCCNC1 [AZD7762] (partner 0.2 µM) | F
3. Cc1cn(-c2cc(NC(=O)c3ccc(C)c(Nc4nccc(-c5cccnc5)n4)c3)cc(C(F)(F)F)c2)cn1 [Nilotinib] + CS(=O)(=O)N1CCN(Cc2cc3nc(-c4cccc5[nH]ncc45)nc(N4CCOCC4)c3s2)CC1 [Pictilisib] (partner 1 µM) | T
4. Cc1cn(-c2cc(NC(=O)c3ccc(C)c(Nc4nccc(-c5cccnc5)n4)c3)cc(C(F)(F)F)c2)cn1 [Nilotinib] + N=C(N)NC(=N)NCCc1ccccc1 [Phenformin] (partner 250 µM) | T
5. Cc1cn(-c2cc(NC(=O)c3ccc(C)c(Nc4nccc(-c5cccnc5)n4)c3)cc(C(F)(F)F)c2)cn1 [Nilotinib] + CCNC(=O)c1noc(-c2cc(C(C)C)c(O)cc2O)c1-c1ccc(CN2CCOCC2)cc1 [Luminespib] (partner 0.01 µM) | F

Next item in the queue.
Challenge: Please let me know if Cc1cn(-c2cc(NC(=O)c3ccc(C)c(Nc4nccc(-c5cccnc5)n4)c3)cc(C(F)(F)F)c2)cn1 [Nilotinib] + Cc1cc(Nc2cc(N3CCN(C)CC3)nc(Sc3ccc(NC(=O)C4CC4)cc3)n2)n[nH]1 [Tozasertib] (partner 0.1 µM) shows relative viability below 0.8.
Response given: T
